Recorded values, source PubChem BioAssay AID1963871.

test system: KRAS-mutant PDC multicell tumor spheroid viability; experiment: Anticancer human tumor 521955-158-R2-J5-PDC patient-derived pancreatic carcinoma cell line growth inhibition [KRAS2]; details: second compound 0.1 µM; first compound 3.16 µM; active = viability on the fitted dose curve at most 10% of control; inactive = the rest
Bench note: report the call from active, inactive

Would you please look over these solved cases?
compound	category.label
CC1COCCN1c1cc(-c2ccnn2C)c2ccnc(-c3ccn[nH]3)c2n1 (stereo not given) + C=CC(=O)N1CCN(c2nc(OCC3CCCN3C)nc3c2CCN(c2cccc4cccc(C)c24)C3)CC1CC#N	inactive
COC(=O)c1ccc2c(C(=Nc3ccc(N(C)C(=O)CN4CCN(C)CC4)cc3)c3ccccc3)c(O)[nH]c2c1 + COc1cc2nc(C)nc(NC(C)c3cc(N)cc(C(F)(F)F)c3)c2cc1OC1CCOC1	active
COc1cc(Nc2ncc3c(n2)-c2ccc(Cl)cc2C(c2c(F)cccc2OC)=NC3)ccc1C(=O)O + C=CC(=O)N1CCN(c2nc(OCC3CCCN3C)nc3c2CCN(c2cccc4cccc(C)c24)C3)CC1CC#N	inactive
CC1COCCN1c1cc(-c2ccnn2C)c2ccnc(-c3ccn[nH]3)c2n1 (stereo not given) + CC1OCC2(CCN(c3cnc(Sc4ccnc(N)c4Cl)c(N)n3)CC2)C1N	inactive

Below: the item to evaluate.
Check the results log: what was the call for CC(C)NCC(C(=O)N1CCN(c2ncnc3c2C(C)CC3O)CC1)c1ccc(Cl)cc1 (stereo not given) + COc1cc2nc(C)nc(NC(C)c3cc(N)cc(C(F)(F)F)c3)c2cc1OC1CCOC1 ?
inactive

---

Recorded viability, T/C, one value per entry.
tested on: KRAS-mutant PDC multicell tumor spheroid viability; experiment: Anticancer human tumor 521955-158-R2-J5-PDC cell line growth inhibition [KRAS2]; settings: second compound 1 µM; first compound 0.1 µM; active compounds read low;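 note: viability read after seven days of drug exposure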
// units = %; emit number, no label

In the examples that follow, each entry is paired with its recorded viability, T/C.
molecule	test.readout	reported.measurement
CC1OCC2(CCN(c3cnc(Sc4ccnc(N)c4Cl)c(N)n3)CC2)C1N (centres undefined) + CNCc1ccccc1-c1csc(C(C)Nc2nc(C)nc3cc(OC)c(OC)cc23)c1	viability, T/C	83.5
O=C(c1cc(Cc2n[nH]c(=O)c3ccccc23)ccc1F)N1CCN(C(=O)C2CC2)CC1 + CNCc1ccccc1-c1csc(C(C)Nc2nc(C)nc3cc(OC)c(OC)cc23)c1	viability, T/C	98.1
Cn1ncnc1[C@H]1c2n[nH]c(=O)c3cc(F)cc(c23)N[C@@H]1c1ccc(F)cc1 + C=CC(=O)N1CCN(c2nc(OCC3CCCN3C)nc3c2CCN(c2cccc4cccc(C)c24)C3)CC1CC#N	viability, T/C	62.7

Give the value of viability, T/C reported for the following: CN(C)C/C=C/C(=O)Nc1cc2c(Nc3ccc(F)c(Cl)c3)ncnc2cc1O[C@H]1CCOC1 + COc1cc2nc(C)nc(NC(C)c3cc(N)cc(C(F)(F)F)c3)c2cc1OC1CCOC1
77.2

Give the value of viability, T/C reported for the following: CC1COCCN1c1cc(-c2ccnn2C)c2ccnc(-c3ccn[nH]3)c2n1 (centres undefined) + CC1OCC2(CCN(c3cnc(Sc4ccnc(N)c4Cl)c(N)n3)CC2)C1N
7.13

Give the value of viability, T/C reported for the following: O=C(c1cc(Cc2n[nH]c(=O)c3ccccc23)ccc1F)N1CCN(C(=O)C2CC2)CC1 + COc1cc2nc(C)nc(NC(C)c3cc(N)cc(C(F)(F)F)c3)c2cc1OC1CCOC1
102

Give the value of viability, T/C reported for the following: COC(=O)c1ccc2c(C(=Nc3ccc(N(C)C(=O)CN4CCN(C)CC4)cc3)c3ccccc3)c(O)[nH]c2c1 + C=CC(=O)N1CCN(c2nc(=O)n(-c3c(C)ccnc3C(C)C)c3nc(-c4c(O)cccc4F)c(F)cc23)C(C)C1
96.4

Give the value of viability, T/C reported for the following: CC(=O)OC12COC1CC(O)C1(C)C(=O)C(O)C3=C(C)C(OC(=O)C(O)C(NC(=O)OC(C)(C)C)c4ccccc4)CC(O)(C(OC(=O)c4ccccc4)C21)C3(C)C (centres undefined) + CC1OCC2(CCN(c3cnc(Sc4ccnc(N)c4Cl)c(N)n3)CC2)C1N
11.2

Give the value of viability, T/C reported for the following: CCN1CCN(Cc2ccc(Nc3ncc(F)c(-c4cc(F)c5nc(C)n(C(C)C)c5c4)n3)nc2)CC1 + C=CC(=O)N1CCN(c2nc(OCC3CCCN3C)nc3c2CCN(c2cccc4cccc(C)c24)C3)CC1CC#N
82.5
